// data source = patent US20250101135A1

molecular target: T1, monomeric human CD19 antigen Fc(kih) fusion molecule (human, UniProt P0DOX5 223-449 = IgG part); test: SPR ProteOn XPR36, IgG from HEK supernatant captured via anti-human Fab, monomeric CD19-Fc analyte, 1:1 Langmuir
T1 construct: also called monomeric CD19-Fc; human CD19-Fc(kih)
Decide by kon: equal to or exceeding 60000 M⁻¹ s⁻¹ means TRUE, less means FALSE.

Exam item: decide whether the reported kon for anti-CD19 clone 8B8-5A07 in P329GLALA human IgG1 format (antibody, V domains shown) VH: QVQLVQSGAEVKKPGASVKVSCKASGYTFTDYIMHWVRQAPGQGLEWMGYINPYNDGSKYTEKFQGRVTMTSDTSISTAYMELSRLRSDDTAVYYCARGTYYYGSALFDYWGQGTTVTVSS VL: DIVMTQTPLSLSVTPGQPASISCKSSQSLETSTGNTYLNWYLQKPGQSPQLLIYRVSKRFSGVPDRFSGSGSGTDFTLKISRVEAEDVGVYYCLQPGHYPGTFGQGTKLEIKR is at least 60000 M⁻¹ s⁻¹.
TRUE

Exam item: decide whether the reported kon for anti-CD19 clone 8B8 (parental) in P329GLALA human IgG1 format (antibody, V domains shown, also called Parental 8B8) VH: EVQLQQSGPELVKPGASVKMACKASGYTFTDYIMHWVKQKTGQGLEWIGYINPYNDGSKYTEKFNGKATLTSDKSSITAYMELSSLTSEDSAVYYCARGTYYYGSALFDYWGQGTTLTVSS VL: DAVMTQTPLSLPVSLGDQASISCRSSQSLENSNGNTYLNWYLQKPGQSPQLLIYRVSKRFSGVLDRFSGSGSGTDFTLKISRVEAEDLGVYFCLQLTHVPYTFGGGTKLEIKR is at least 60000 M⁻¹ s⁻¹.
FALSE

Exam item: decide whether the reported kon for anti-CD19 clone 8B8-5B08 in P329GLALA human IgG1 format (antibody, V domains shown) VH: QVQLVQSGAEVKKPGASVKVSCKASGYTFTDYIMHWVRQAPGQGLEWMGYINPYNDGSKYTEKFQGRVTMTSDTSISTAYMELSRLRSDDTAVYYCARGTYYYGPQLFDYWGQGTTVTVSS VL: DIVMTQTPLSLSVTPGQPASISCKSSQSLETSTGNTYLNWYLQKPGQSPQLLIYRVSKRFSGVPDRFSGSGSGTDFTLKISRVEAEDVGVYYCLQLDSYPNTFGQGTKLEIKR is at least 60000 M⁻¹ s⁻¹.
TRUE

Exam item: decide whether the reported kon for anti-CD19 clone 8B8-2B11 in P329GLALA human IgG1 format (antibody, V domains shown) VH: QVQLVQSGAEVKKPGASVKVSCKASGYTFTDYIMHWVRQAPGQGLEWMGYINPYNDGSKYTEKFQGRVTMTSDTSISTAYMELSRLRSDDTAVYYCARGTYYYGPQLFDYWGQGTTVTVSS VL: DIVMTQTPLSLSVTPGQPASISCKSSQSLETSTGTTYLNWYLQKPGQSPQLLIYRVSKRFSGVPDRFSGSGSGTDFTLKISRVEAEDVGVYYCLQLLEDPYTFGQGTKLEIKR is at least 60000 M⁻¹ s⁻¹.
TRUE
